Sequence of the target: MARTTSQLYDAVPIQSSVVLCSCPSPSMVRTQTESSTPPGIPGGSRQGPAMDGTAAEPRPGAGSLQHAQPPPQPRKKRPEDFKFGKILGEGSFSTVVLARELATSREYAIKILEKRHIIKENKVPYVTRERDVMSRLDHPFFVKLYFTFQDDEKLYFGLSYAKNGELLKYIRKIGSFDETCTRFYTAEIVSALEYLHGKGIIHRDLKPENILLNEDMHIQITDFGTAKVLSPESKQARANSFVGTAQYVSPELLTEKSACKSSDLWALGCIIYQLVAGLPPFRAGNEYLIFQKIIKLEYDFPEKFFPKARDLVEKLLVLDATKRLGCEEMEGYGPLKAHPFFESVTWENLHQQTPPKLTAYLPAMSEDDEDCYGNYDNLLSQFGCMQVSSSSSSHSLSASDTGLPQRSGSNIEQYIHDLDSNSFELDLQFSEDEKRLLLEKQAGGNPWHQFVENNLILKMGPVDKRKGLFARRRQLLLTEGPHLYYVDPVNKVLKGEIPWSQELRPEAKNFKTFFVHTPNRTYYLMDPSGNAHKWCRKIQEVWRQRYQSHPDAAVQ
pIC50: −log10 of the molar value.
pIC50: recorded values
measured metric: pIC50

structure_smiles=CCN(CC)CCCOc1cc2ncc3c(N)nc4c(C)c(N)ccc4c3c2cc1OC number=6.53
structure_smiles=COc1cc2c(cc1NCCN1CCCC1)ncc1c(N)nc3c(C)c(N)ccc3c12 number=5.43
structure_smiles=COc1cc2c(cc1NCCN(C)C)ncc1c(N)nc3c(C)c(N)ccc3c12 number=5.62
structure_smiles=COc1cc2c(cc1O)ncc1c(N)nc3c(C)c(N)ccc3c12 number=5.86
structure_smiles=COc1cc2ncc3c(N)nc4c(C)c(N5C(=O)c6ccccc6C5=O)ccc4c3c2cc1OC number=5.76

Reference source for all entries: patent US7388016B2
